- SUBJECT OF TEST: MOR (Homo sapiens, UniProt P35372)
- Construct: host or cells: CHO (CHO-hMOR)
- Sequence (P35372 whole entry): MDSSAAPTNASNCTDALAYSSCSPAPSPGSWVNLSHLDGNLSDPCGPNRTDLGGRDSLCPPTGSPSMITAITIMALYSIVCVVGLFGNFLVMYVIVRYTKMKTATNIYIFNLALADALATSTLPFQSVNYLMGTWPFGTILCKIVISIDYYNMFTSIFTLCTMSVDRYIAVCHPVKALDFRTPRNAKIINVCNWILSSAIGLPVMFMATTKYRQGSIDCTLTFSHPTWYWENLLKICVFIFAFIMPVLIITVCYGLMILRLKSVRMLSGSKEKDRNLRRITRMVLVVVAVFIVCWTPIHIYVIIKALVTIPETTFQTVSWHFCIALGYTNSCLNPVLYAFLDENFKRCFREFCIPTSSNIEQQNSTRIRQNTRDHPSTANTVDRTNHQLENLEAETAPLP
- MEASUREMENT NOTES: [35S]GTPγS binding assay, CHO-hMOR membranes
- Assay type: biochemical
- PROTOCOL CONDITIONS: relative to reference full agonist DAMGO; read-out: MOR % stim.
MEASURED QUANTITY: Emax

// worked examples, Emax included
CO[C@@]12CC[C@@H](NCCC(=O)O)[C@@H]3Oc4c(O)ccc5c4[C@@]31CCN(C)[C@@H]2C5 [Compound 20b]: ~80%
CO[C@@]12CC[C@@H](N[C@@H](CC(=O)O)C(=O)O)[C@@H]3Oc4c(O)ccc5c4[C@@]31CCN(C)[C@@H]2C5 [Compound 13b]: ~70%
CO[C@@]12CC[C@@H](N[C@H](Cc3ccccc3)C(=O)O)[C@@H]3Oc4c(O)ccc5c4[C@@]31CCN(C)[C@@H]2C5 [Compound 17b]: ~80%

**Q:** Report Emax for CO[C@@]12CCC(N[C@@H](CCC(=O)O)C(=O)O)[C@@H]3Oc4c(O)ccc5c4[C@@]31CCN(C)[C@@H]2C5 (stereo in doubt) [Compound 14a] please.
**A:** 105%

**Q:** Now the same for CO[C@@]12CC[C@H](N[C@@H](CCC(N)=O)C(=O)O)[C@@H]3Oc4c(O)ccc5c4[C@@]31CCN(C)[C@@H]2C5 [Compound 12a]
**A:** 90%

**Q:** And for CO[C@@]12CC[C@H](N[C@@H](CC(=O)O)C(=O)O)[C@@H]3Oc4c(O)ccc5c4[C@@]31CCN(C)[C@@H]2C5 [Compound 13a] ?
**A:** 90%
